pIC50: −log10 of the molar value.
Study the reported pIC50 values for human DGAT2 (hDGAT2) (Homo sapiens) given below; they originate from different publications.
Mark 1 (yes) for reported pIC50 of 7 or greater; mark 0 (no) for anything smaller.

                                    molecule                          measured_on  assigned_category
 0  CCOc1cccnc1Oc1cncc(-c2ncc(C(=O)N[C@H]3CCC(C(F)(F)F)NC3)cn2)c1 (single isomer, unassigned)  human DGAT2 (hDGAT2) (Homo sapiens)             0 (no)
 1  CC(C)n1nc(-c2ccccc2Cl)c2ccc(C(=O)NC3CCS(=O)(=O)C3)cc21 (centres unmarked)  human DGAT2 (hDGAT2) (Homo sapiens)             0 (no)
 2  Cc1noc([C@@H]2C[C@H]2C(=O)NCc2ccc(-c3cccc(OC(F)(F)F)c3)c3c2CN(C(=O)NC2(C)COC2)CC3)n1 (relative stereo)  human DGAT2 (hDGAT2) (Homo sapiens)            1 (yes)
 3  Cc1ncc(OC(F)F)cc1-c1nn(C(C)C)c2cc(C(=O)NC3(C)CS(=O)(=O)C3)ncc12  human DGAT2 (hDGAT2) (Homo sapiens)             0 (no)
 4  Cc1noc([C@@H]2C[C@H]2C(=O)NCc2ccc(-c3cccc(OC(F)(F)F)c3)c3c2CN(Cc2ccncn2)CC3)n1 (relative stereo)  human DGAT2 (hDGAT2) (Homo sapiens)             0 (no)
 5  Cc1c(Oc2ncc(F)cc2OCC(F)F)ccc2nc(C(=O)NC3(C)CC(F)(F)C3)cn12  human DGAT2 (hDGAT2) (Homo sapiens)            1 (yes)
 6  CCOc1cccnc1Oc1ccc2nc(C(=O)N[C@@]3(C)CCS(=O)(=O)C3)cn2c1  human DGAT2 (hDGAT2) (Homo sapiens)            1 (yes)
 7  CC(CNC(=O)c1ccc(-c2cccc(C(F)(F)F)c2)c2c1CN(C(=O)NC(C)(C)C)CC2)c1ncco1 (centres unmarked)  human DGAT2 (hDGAT2) (Homo sapiens)             0 (no)
 8  O=C(NC1CCS(=O)(=O)C1)c1ccc2c(-c3cccc(C4CC4)c3)cn(-c3ccc(F)cc3)c2c1 (single isomer, unassigned; enantiomer a)  human DGAT2 (hDGAT2) (Homo sapiens)            1 (yes)
 9  CO[C@]1(C(F)(F)F)C[C@H](NC(=O)c2nc3ccc(Oc4ncc(F)cc4OCC(F)F)cn3c2C)C1  human DGAT2 (hDGAT2) (Homo sapiens)            1 (yes)
10  Cc1c(C(=O)NC2(C)CCS(=O)(=O)CC2)nc2ccc(Oc3ncc(S(C)(=O)=O)cc3OCC(F)(F)F)cn12  human DGAT2 (hDGAT2) (Homo sapiens)            1 (yes)
11  CC(C)(C)NC(=O)N1CCc2c(-c3cccc(C(F)(F)F)c3)ccc(C(=O)NCCc3nc4ccc(Cl)cc4[nH]3)c2C1  human DGAT2 (hDGAT2) (Homo sapiens)            1 (yes)
